# credit: patent US20180334702A1

This listing pairs binders with measured CDK4/6 Reactivity.
Biological target: CDK4/6
Test: cell-based or functional assay
Settings: scale: relative value
No end group written: not given here. *: point of attachment. aminohexane = linker joining biotin to the N-terminal residue; Biotin = O=C1N[C@H]2[C@H](CS[C@H]2CCCCC(=O)*)N1
Readout: CDK4/6 Reactivity

{"columns": ["Binder", "Readout", "Assay result"],
 "data": [
  ["{Biotin-aminohexane}-GMPWSPNPWWAGGGG [Polypeptide 11]", "CDK4/6 Reactivity", 3],
  ["{Biotin-aminohexane}-GMPWSPNAWWRGGGG [Polypeptide 8]", "CDK4/6 Reactivity", 7],
  ["{Biotin-aminohexane}-GMPWSPNPWWRAGGG [Polypeptide 12]", "CDK4/6 Reactivity", 6],
  ["{Biotin-aminohexane}-GMPWSANPWWRGGGG [Polypeptide 6]", "CDK4/6 Reactivity", 1],
  ["{Biotin-aminohexane}-GMPFSPNPWWRGGGG [Polypeptide 13]", "CDK4/6 Reactivity", 5],
  ["{Biotin-aminohexane}-GMPWSPAPWWRGGGG [Polypeptide 7]", "CDK4/6 Reactivity", 8],
  ["{Biotin-aminohexane}-AMPWSPAPAARAGGG [Polypeptide F]", "CDK4/6 Reactivity", 7],
  ["{Biotin-aminohexane}-GAPWSPNPWWRGGGG [Polypeptide 3]", "CDK4/6 Reactivity", 33],
  ["{Biotin-aminohexane}-GMPWSYNPWWRGGGG [Polypeptide 17]", "CDK4/6 Reactivity", 2],
  ["{Biotin-aminohexane}-GMFWSPNPWWRGGGG [Polypeptide D]", "CDK4/6 Reactivity", 5],
  ["{Biotin-aminohexane}-GMPWSPNPWWHGGGG [Polypeptide A]", "CDK4/6 Reactivity", 7],
  ["{Biotin-aminohexane}-GMPWSPNPAWRGGGG [Polypeptide 9]", "CDK4/6 Reactivity", 7],
  ["{Biotin-aminohexane}-GMPASPNPWWRGGGG [Polypeptide 5]", "CDK4/6 Reactivity", 1]
]}
